B1: RSAD1 (parent)
chain: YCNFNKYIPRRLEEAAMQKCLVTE

Variants of: B1
PROTOCOL: protein stability index of a GFP-peptide fusion (GPS, HEK-293T) (PSI 1-6); higher = more stable;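 further: lentivirally expressed fusions sorted by FACS into six bins by GFP to DsRed ratio, PSI derived from sequencing read proportions per bin multiplied by bin number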
TEST_CONDITIONS: c terminus: a fixed tail appended
Reported protein stability index values are given for each entry in this list.
Answer as a number with no unit attached.

- YCNFNKYIPRRLEEAAMQDCLVTE [K19D]: 1.68
- YCNFNKYIPRRLEEAAMQKCLSTE [V22S]: 2.38
- YCNFNKYIPRRTEEAAMQKCLVTE [L12T]: 2
- YCNFNKYIPRRLEEAAMQKGLVTE [C20G]: 2.9
- YCNFNKYIPRRQEEAAMQKCLVTE [L12Q]: 4
- YCNSNKYIPRRLEEAAMQKCLVTE [F4S]: 2.8
- YCNFNKYIPRRLEEVAMQKCLVTE [A15V]: 3.4
- YFNFNKYIPRRLEEAAMQKCLVTE [C2F]: 2.35

**Query** Provide one value: measured protein stability index of YCNFNKYIPWRLEEAAMQKCLVTE [R10W]
**Result** 3.64

**Query** Provide one value: measured protein stability index of YCNFPKYIPRRLEEAAMQKCLVTE [N5P]
**Result** 2.07

**Query** Provide one value: measured protein stability index of YCNFNKYIPRRLETAAMQKCLVTE [E14T]
**Result** 2.09
